Data provenance: patent US20150037339A1

Biological target: T1, Activin A (human, UniProt P08476 311-426)
T1 construct: Homodimer of two βA subunits; bought from R&D Systems (#338-AC); also called inhibin-βA dimer; human Activin A
T1 sequence: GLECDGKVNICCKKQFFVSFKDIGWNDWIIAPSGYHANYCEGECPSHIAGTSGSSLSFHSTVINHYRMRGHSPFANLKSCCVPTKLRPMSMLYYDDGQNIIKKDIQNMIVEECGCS
Assay: SPR, captured mAb, 37C
Protocol: Antibody-antigen association was monitored for 240 seconds while dissociation in buffer was monitored for 600 seconds. Kinetic association and dissociation rate constants were determined by processing and fitting the data using Scrubber software version 2.0c. Binding equilibrium dissociation constants (KD) and dissociative half-lives (t_{1/2}) were then calculated from the kinetic rate constants as: KD (M)=kd/kₐ and t_{1/2} (min)=[ln 2/(60*kd)]. […]
attribute measured: kon (M⁻¹ s⁻¹)
Give just the number in M⁻¹ s⁻¹; leave the unit off.

Query: Need kon of H4H10424P (antibody, human IgG4, V domains shown) VH: QVQLVESGGGVVQPGRSLRLSCAASGFTFSSYGMHWVRQAPGKGLEWVAVIWYDGSNKYNADSVKGRFTISRDNSKNTVYLQMNSLRAEDTAVYYCARARNYDILTGYYNLGMDVWGQGTTVTVSS VL: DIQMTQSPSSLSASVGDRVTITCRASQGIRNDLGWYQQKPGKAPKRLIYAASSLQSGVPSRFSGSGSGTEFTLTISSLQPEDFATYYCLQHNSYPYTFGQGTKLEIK , thanks.
Response: 4.59e+06

Query: Same again, this time with H4H10429P (antibody, human IgG4, V domains shown) VH: QVQLVESGGGVVQPGRSLRLSCVASGFTVSSYGIHWVRQAPGKGLEWVSVIWYDGRNKDYADSVKGRFTISRDNSKNTVYLEMKGLRAEDTALYYCARDKTGDFDSWGQGTLVTVSS VL: DIQMTQSPSSLSASVGDRVTITCRASQNINSFLSWYQQKPGKAPKFLIYDASSIQSGAPSRFSGSGSGTDFTLTISSLQPEDFATYYCQQSYSSPFTFGQGTKLEIK
Response: 1.33e+07

Query: Repeat for the following binder: H4H10426P (antibody, human IgG4, V domains shown) VH: EVQLVESGGNLVQSGRSLRLSCTASGFAFDDFAMHWVRQVPGKGLEWVSGISWNSDTIGYADSVKGRFTISRDNAQNSLFLQMDSLRAEDTALYYCVKDMVRGLIGYYYYGMDVWGQGTTVTVSS VL: EIVLTQSPAILSLSPGERAILSCRASQSIYTYLSWYQQTPGRAPRLLIYETSSRATGIPARFIGSGSGTDFTLTISSLEPEDFAFYYCQHRSDWPPTFGQGTKLEIK
Response: 1.61e+07
